Just for reference, the supplement of paper PMC10567573 is where these values come from.

B1: SCARA5 (parent)
chain: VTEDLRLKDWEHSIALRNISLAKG

Variants of: B1
assay-method-text: protein stability index of a GFP-peptide fusion (GPS, HEK-293T) (PSI 1-6); higher = more stable;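 note: lentivirally expressed fusions sorted by FACS into six bins by GFP to DsRed ratio, PSI derived from sequencing read proportions per bin multiplied by bin number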
condition-info: c terminus: a fixed tail appended
protein stability index vs 4: at or above is met, below is not met.

VTEDLRLKDWEHSIALRNISKAKG	met
VVEDLRLKDWEHSIALRNISLAKG	not met
VTEDLRLKDWEHSIWLRNISLAKG	not met

Quick check, protein stability index >= 4? `VTEDLRLKDWEHSIANRNISLAKG`
met

Quick check, protein stability index >= 4? `VTEDLRLKDWEASIALRNISLAKG`
not met
